recorded-conditions: Nematic liquid crystal; DTA
As shown below, each of these compounds has a reported Triple point temperature value.
All answers are understood in K, so give the number only.

Consider the worked cases shown below.
- compound: "CCCCc1ccc(C(=O)O)cc1 [4-butylbenzoic acid]"
  value-units: "K"
  Triple point temperature: 387.98
- compound: "CCCCCCCc1ccc(C(=O)O)cc1 [4-heptylbenzoic acid]"
  value-units: "K"
  Triple point temperature: 393.11

Value of Triple point temperature reported for the compound CCCCCCCCc1ccc(C(=O)O)cc1 [4-octylbenzoic acid] is 385.54

Value of Triple point temperature reported for the compound CCCCCc1ccc(C(=O)O)cc1 [4-pentylbenzoic acid] is 399.3

Value of Triple point temperature reported for the compound CCCCCCc1ccc(C(=O)O)cc1 [4-hexylbenzoic acid] is 385.87
